# MEC (minimal effective concentration) per record follows
system name: recombinant guanylate cyclase reporter cell line (Rattus norvegicus, UniProt P19686+P20595)
Construct: expressed in transfected cells
Sequence (P20595 whole entry): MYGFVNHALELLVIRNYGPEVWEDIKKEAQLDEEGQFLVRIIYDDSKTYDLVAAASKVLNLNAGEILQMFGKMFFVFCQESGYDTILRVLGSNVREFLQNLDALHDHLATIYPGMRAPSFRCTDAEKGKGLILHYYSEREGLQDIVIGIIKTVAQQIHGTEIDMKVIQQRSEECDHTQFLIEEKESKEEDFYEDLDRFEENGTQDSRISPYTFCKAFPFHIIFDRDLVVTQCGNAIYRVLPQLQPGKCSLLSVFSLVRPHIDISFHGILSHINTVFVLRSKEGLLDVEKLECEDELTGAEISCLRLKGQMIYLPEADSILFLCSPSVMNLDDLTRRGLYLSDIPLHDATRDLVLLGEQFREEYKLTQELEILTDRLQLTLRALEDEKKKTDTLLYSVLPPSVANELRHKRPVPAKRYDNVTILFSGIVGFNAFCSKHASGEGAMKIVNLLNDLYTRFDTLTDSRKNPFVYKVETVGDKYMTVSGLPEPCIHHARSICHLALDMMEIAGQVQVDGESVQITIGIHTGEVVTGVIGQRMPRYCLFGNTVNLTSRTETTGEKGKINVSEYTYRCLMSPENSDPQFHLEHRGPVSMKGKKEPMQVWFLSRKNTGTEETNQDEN
Sequence (P19686 whole entry): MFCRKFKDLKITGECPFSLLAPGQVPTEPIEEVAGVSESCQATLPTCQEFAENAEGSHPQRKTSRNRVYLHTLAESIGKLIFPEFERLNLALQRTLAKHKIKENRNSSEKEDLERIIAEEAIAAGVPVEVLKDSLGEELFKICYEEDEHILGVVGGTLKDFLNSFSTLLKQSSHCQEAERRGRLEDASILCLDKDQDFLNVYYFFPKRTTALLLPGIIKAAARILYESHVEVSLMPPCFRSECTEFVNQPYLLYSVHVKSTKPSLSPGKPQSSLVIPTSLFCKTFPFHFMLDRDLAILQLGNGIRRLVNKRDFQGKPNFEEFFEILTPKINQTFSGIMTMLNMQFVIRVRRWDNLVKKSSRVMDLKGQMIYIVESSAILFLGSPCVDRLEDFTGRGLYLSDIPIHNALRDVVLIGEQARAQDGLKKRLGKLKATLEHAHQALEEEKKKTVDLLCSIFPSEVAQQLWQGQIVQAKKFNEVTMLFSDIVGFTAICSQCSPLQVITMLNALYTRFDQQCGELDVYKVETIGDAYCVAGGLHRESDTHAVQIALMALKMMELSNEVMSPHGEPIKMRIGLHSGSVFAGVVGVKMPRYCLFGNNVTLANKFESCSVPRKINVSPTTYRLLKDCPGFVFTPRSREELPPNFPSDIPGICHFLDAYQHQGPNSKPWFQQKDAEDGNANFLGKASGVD
test protocol: Action on recombinant guanylate cyclase reporter cell line
Format: cell-based
settings: in some cases mean values obtained from individual determinations
Report the value in µM with no unit label.

{"smiles code": "C[C@@H](CO)NC(=O)c1cnc2c(OCC3CCCCC3)cccn12", "measured metric": "MEC (minimal effective concentration)", "observed value": 3.0}
{"smiles code": "CSCC[C@H](CO)NC(=O)c1c(C)nc2c(OCc3c(F)cccc3F)cccn12", "measured metric": "MEC (minimal effective concentration)", "observed value": 0.1}
{"smiles code": "CCCC[C@H](CO)NC(=O)c1c(C)nc2c(OCc3c(F)ccc(F)c3F)cccn12", "measured metric": "MEC (minimal effective concentration)", "observed value": 0.03}

Now let's try a different one.
What value of measured MEC (minimal effective concentration) is listed for CCCC[C@H](CO)NC(=O)c1c(C)nc2c(OCc3c(F)cccc3Cl)cccn12 ?
0.1
